test system: PC-3; experiment: NCI tumour cell line growth inhibition, 48 h
Calls of active or inactive are those of the source. No stated cut-off is given here; in the data, active = GI50 up to about 1.1 µM and inactive = higher.
Catalogue of compounds with associated GI50

// solved cases for GI50 follow
Compound	GI50
COC(=O)C1=C(C(=O)Nc2cccnc2Cl)N(c2ccc(OC)cc2[N+](=O)[O-])C(c2ccc(C)cc2)=CC1c1ccc(OC)cc1OC (centres undefined)	27.5 µM (inactive)
CNC(=O)OCc1c(COC(=O)NC)c(C)n(-c2ccc(Br)cc2)c1C	17.2 µM (inactive)
C/C=C/C(C#N)(Cc1ccccc1)OP1(=O)OC(c2ccccc2)C(C)N1C (centres undefined)	58.6 µM (inactive)
CCNC(=O)/C(=C/c1ccc(OC)cc1)c1cc(OC)c(OC)c(OC)c1	3.52 µM (inactive)
Cc1nnc2sc(-c3ccc(-c4ccccc4Cl)o3)nn12	37.2 µM (inactive)
N#Cc1c(N)nc(Nc2cccc3ccccc23)c(C#N)c1C#N	4.27 µM (inactive)
C=C1C[C@@H]2O[C@H]3[C@H]4[C@@H](C[C@@H](C)[C@@H](OC(C)=O)[C@H]42)[C@@H](C)CO[C@@]3(C)[C@H](OC(C)=O)C[C@H]1O	95.9 µM (inactive)
COc1cc2oc(=O)cc(C)c2c(OC)c1O	> 100 µM (inactive)

The reported GI50 of the compound `O=C1C=C(N2CCN(CCOCCO)CC2)C(=O)c2c(O)ccc(O)c21` was 3.07 µM (inactive)
